System: MDR1 (human)
Method Description: Efflux ratio of permeability in MDCK cells over-expressing human Mdr1
Assay type: ADME, cell-based, Canis lupus familiaris
Condition Set: dog
Measure: efflux ratio
# output: bare number, no unit

Req: Looking for the measured efflux ratio of COC(=O)N[C@H](C(=O)N1C[C@@H](C)C[C@H]1c1nc(-c2ccc(-c3ccc(-c4ccc5[nH]c([C@@H]6C[C@H](C)CN6C(=O)[C@@H](NC(=O)OC)C(C)C)nc5c4)cc3)cc2)c[nH]1)C(C)C , can you help?
Resp: 1.8

====

Method Description: Cmax in rat at 3 mg/kg, po
Type: ADME, organism-based
Design: dose 3 mg/kg, route oral
Condition Set: in vivo
Measure: Cmax (ng/mL)
Write it as a number; the unit ng/mL goes unstated.

Req: Field request: Cmax | item: COC(=O)N[C@H](C(=O)N1C[C@@H](C)C[C@H]1c1nc(-c2ccc(-c3ccc(-c4ccc5[nH]c([C@@H]6C[C@H](C)CN6C(=O)[C@@H](NC(=O)OC)C(C)C)nc5c4)cc3)cc2)c[nH]1)C(C)C
Resp: 0.03
